Target: rat TRPV1 (Rattus norvegicus)
Construct: expressed in transfected cells; host or cells: HEK293
Sequence (O35433 whole entry): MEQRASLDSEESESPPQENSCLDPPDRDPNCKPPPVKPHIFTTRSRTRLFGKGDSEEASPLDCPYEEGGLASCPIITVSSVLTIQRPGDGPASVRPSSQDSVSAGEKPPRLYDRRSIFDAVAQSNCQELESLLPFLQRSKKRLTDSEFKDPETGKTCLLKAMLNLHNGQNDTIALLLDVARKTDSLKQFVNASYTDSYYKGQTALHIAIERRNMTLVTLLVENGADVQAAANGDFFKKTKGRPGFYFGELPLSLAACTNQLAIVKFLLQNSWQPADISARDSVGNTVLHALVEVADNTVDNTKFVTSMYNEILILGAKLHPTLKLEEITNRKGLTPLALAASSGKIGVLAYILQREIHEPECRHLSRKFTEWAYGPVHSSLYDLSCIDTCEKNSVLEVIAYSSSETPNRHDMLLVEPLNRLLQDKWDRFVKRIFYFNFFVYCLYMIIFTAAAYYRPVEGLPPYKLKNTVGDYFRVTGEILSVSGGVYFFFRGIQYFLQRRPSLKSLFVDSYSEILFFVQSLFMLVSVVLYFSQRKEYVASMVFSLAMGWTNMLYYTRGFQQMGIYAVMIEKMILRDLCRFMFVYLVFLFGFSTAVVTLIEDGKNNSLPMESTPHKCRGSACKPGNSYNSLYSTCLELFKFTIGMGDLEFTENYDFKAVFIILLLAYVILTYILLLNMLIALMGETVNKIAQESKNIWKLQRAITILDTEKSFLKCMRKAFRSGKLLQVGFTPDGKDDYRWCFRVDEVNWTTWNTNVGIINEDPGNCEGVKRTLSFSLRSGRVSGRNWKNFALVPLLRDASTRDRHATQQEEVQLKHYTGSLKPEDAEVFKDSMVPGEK
Experiment: Assay for inhibitory activity against VR1 patch clamp activity (capsaicin current, inside-out patch)
Format: cell-based
Settings: 1 μM compound with 10 μM capsaicin; rat TRPV1-transfected HEK293, inside-out patch; relative to capsaicin current before compound
This listing pairs compounds with measured inhibition at 1 µM.

- smilesData: "FC(F)(F)c1ccc2nc(-c3ccc(-c4ncccc4Cl)c4ccccc34)[nH]c2c1"
  unitTag: "%"
  inhibition at 1 µM: 86
- smilesData: "FC(F)(F)c1cc(Cl)c2nc(-c3ccc(-c4ncccc4Cl)cn3)[nH]c2c1"
  unitTag: "%"
  inhibition at 1 µM: 73
- smilesData: "Cc1ccc2nc(-c3ccc(-c4ncccc4Cl)cc3)[nH]c2c1C"
  unitTag: "%"
  inhibition at 1 µM: 80
- smilesData: "FC(F)(F)c1cc(Cl)c2nc(-c3ccc(-c4ncccc4Cl)cc3)[nH]c2c1"
  unitTag: "%"
  inhibition at 1 µM: 94
- smilesData: "FC(F)(F)c1cc(C(F)(F)F)c2nc(-c3ccc(-c4ncccc4C(F)(F)F)cn3)[nH]c2c1"
  unitTag: "%"
  inhibition at 1 µM: 99
- smilesData: "FC(F)(F)c1ccc2nc(-c3ccc(-c4ncc(Cl)cc4Cl)cn3)[nH]c2c1"
  unitTag: "%"
  inhibition at 1 µM: 84
- smilesData: "FC(F)(F)c1cc(Cl)c2nc(-c3ccc(-c4ncccc4C(F)(F)F)cc3)[nH]c2c1"
  unitTag: "%"
  inhibition at 1 µM: 66
- smilesData: "FC(F)(F)c1cc(C(F)(F)F)c2nc(-c3ccc(-c4ncccc4Cl)cn3)[nH]c2c1"
  unitTag: "%"
  inhibition at 1 µM: 89
- smilesData: "CS(=O)(=O)Nc1ccc(-c2ccc(-c3nc4c(C(F)(F)F)cc(C(F)(F)F)cc4[nH]3)cc2)cc1F"
  unitTag: "%"
  inhibition at 1 µM: 50
- smilesData: "FC(F)(F)c1cnc2nc(-c3ccc(-c4ncccc4Cl)c4ccccc34)[nH]c2c1"
  unitTag: "%"
  inhibition at 1 µM: 97
- smilesData: "FC(F)(F)c1cnc2nc(-c3ccc(-c4ncccc4C(F)(F)F)cc3)[nH]c2c1"
  unitTag: "%"
  inhibition at 1 µM: 16
- smilesData: "Clc1ccc2nc(-c3ccc(-c4ncccc4Cl)cc3)[nH]c2c1"
  unitTag: "%"
  inhibition at 1 µM: 45
- smilesData: "Clc1ccc2nc(-c3ccc(Oc4ccccc4)cc3)[nH]c2c1"
  unitTag: "%"
  inhibition at 1 µM: 60
- smilesData: "CC(C)(C)c1ccc2nc(-c3ccc(-c4ncccc4Cl)c(Cl)c3)[nH]c2c1"
  unitTag: "%"
  inhibition at 1 µM: 30
- smilesData: "FC(F)(F)c1ccc2nc(-c3ccc(-c4ncccc4C(F)(F)F)cn3)[nH]c2c1"
  unitTag: "%"
  inhibition at 1 µM: 69
- smilesData: "FC(F)(F)c1ccc2nc(-c3ccc(-c4ncccc4Cl)cc3)[nH]c2c1"
  unitTag: "%"
  inhibition at 1 µM: 100
- smilesData: "FC(F)(F)c1ccc2nc(-c3ccc(-c4ncc(Cl)cc4Cl)c(Cl)c3)[nH]c2c1"
  unitTag: "%"
  inhibition at 1 µM: 80

// provenance: patent US9199965B2
